Where these numbers come from: patent US4520022A

Parameter: Cmax. Scope: all listed entries.
- experiment-summary: in vivo
- condition: mouse, im, 20 mg/kg, Cmax
quantity-kind: Cmax

1. CC/C=C\C1=C(C(=O)[O-])N2C(=O)[C@@H](NC(=O)[C@H](N)c3ccc(O)cc3)[C@H]2SC1.[Na+] ... 25000 ng/mL
2. CC1=C(C(=O)O)N2C(=O)[C@@H](NC(=O)[C@H](N)c3ccc(O)cc3)[C@H]2SC1 [Cefadroxil] ... 21000 ng/mL
3. C/C=C\C1=C(C(=O)O)N2C(=O)[C@@H](NC(=O)[C@H](N)c3ccccc3)[C@H]2SC1 [Compound 24] ... 31000 ng/mL
4. C/C=C/C1=C(C(=O)O)N2C(=O)[C@@H](NC(=O)[C@H](N)c3ccc(O)cc3)[C@H]2SC1 [Compound 8] ... 31000 ng/mL
